- Experimental Target: von Hippel-Lindau disease tumor suppressor (Homo sapiens) (UniProt P40337)
- Sequence (P40337 whole entry, looked up): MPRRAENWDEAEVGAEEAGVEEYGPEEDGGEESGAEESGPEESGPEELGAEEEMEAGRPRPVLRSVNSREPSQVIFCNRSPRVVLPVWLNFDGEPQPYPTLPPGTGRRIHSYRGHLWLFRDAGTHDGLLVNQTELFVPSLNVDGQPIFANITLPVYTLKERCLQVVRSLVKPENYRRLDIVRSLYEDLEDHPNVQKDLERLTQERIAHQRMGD
- Experiment Notes: Binding affinity to 6-His tagged human VHL at 50 uM incubated for 1 hr by HTRF based assay relative to control
Each entry below carries its reported Activity.
Quick note: give the figure in %, leave out the unit.

Illustrative cases are given below, each with its answer.
Cc1nc(C)c(-c2ccc([C@H](C)NC(=O)[C@@H]3C[C@@H](O)CN3C(=O)[C@@H](N)C(C)(C)C)cc2)s1.Cl : 65
Cc1ncsc1-c1ccc([C@H](C)NC(=O)[C@@H]2C[C@@H](O)CN2C(=O)[C@@H](N)C(C)(C)C)cc1 : 73
Cc1ncsc1-c1ccc(-c2c[nH]c([C@@H]3C[C@@H](O)CN3C(=O)[C@@H](N)C(C)(C)C)n2)cc1 : 21

Consider the additional compound presented here.
Can you look up the measured Activity of `Cc1nc(C)c(-c2ccc(-c3c[nH]c([C@@H]4C[C@@H](O)CN4C(=O)[C@@H](N)C(C)(C)C)n3)cc2)s1` for me?
35

----------
- Experiment Notes: Metabolic stability in HEK293 cells cytosol assessed as half life
- Type: ADME, subcellular
- Condition Description: human, HEK293 cell cytosol
Each entry below carries its reported half-life.
Write the numeric value and follow it with the unit.

Cc1nc(C)c(-c2ccc(-c3cnc([C@@H]4C[C@@H](O)CN4C(=O)[C@@H](NC(=O)CCCCNC(=O)COc4c(-c5csc(N6CCOCC6)n5)ccc(F)c4F)C(C)(C)C)[nH]3)cc2)s1 : 17.1 h

Can you look up the measured half-life of `Cc1ncsc1-c1ccc([C@H](C)NC(=O)[C@@H]2C[C@@H](O)CN2C(=O)[C@@H](NC(=O)CCCCNC(=O)COc2c(-c3csc(N4CCOCC4)n3)ccc(F)c2F)C(C)(C)C)cc1` for me?
2.85 h

----------
- Experiment Notes: Metabolic stability in human hepatocytes assessed as half life
- Type: ADME, cell-based, Hepatocyte
Readout Label: half-life (h)
Quick note: give the figure in h, leave out the unit.

Cc1ncsc1-c1ccc([C@H](C)NC(=O)[C@@H]2C[C@@H](O)CN2C(=O)[C@@H](N)C(C)(C)C)cc1 : 2.01
Cc1ncsc1-c1ccc(-c2c[nH]c([C@@H]3C[C@@H](O)CN3C(=O)[C@@H](N)C(C)(C)C)n2)cc1 : 5.76
Cc1nc(C)c(-c2ccc([C@H](C)NC(=O)[C@@H]3C[C@@H](O)CN3C(=O)[C@@H](N)C(C)(C)C)cc2)s1.Cl : 2.74

Consider the additional compound presented here.
Can you look up the measured half-life of `Cc1nc(C)c(-c2ccc(-c3c[nH]c([C@@H]4C[C@@H](O)CN4C(=O)[C@@H](N)C(C)(C)C)n3)cc2)s1` for me?
5.58

Where do the numbers come from? From ChEMBL document CHEMBL5365476.
